The measurements presented in this section are drawn from the supplement of paper PMC9233669.

System: biotinyl-Met-oxazolone
assay summary: self-aminoacylation, catalytic enhancement (BMO) (fold over background); higher = more active; k-Seq, kA / k0A0; sequences stand for … in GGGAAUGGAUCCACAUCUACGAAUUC…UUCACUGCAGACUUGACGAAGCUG
Fewer inactive variants are shown than the library holds.
Decide by self-aminoacylation: equal to or exceeding 3 means yes (1), less means no (0).

{"columns": ["residue sequence", "class"],
 "data": [
  ["CGACAUCAAACAAUCGGUCUG [Fam1A.1 aminoacylation ribozyme variant]", "no (0)"],
  ["AUUCACCUAGGUCGUCGGCUG [Fam2.2 aminoacylation ribozyme variant]", "no (0)"],
  ["CCCCGCUUCAAGCAAUCGGUC [Fam1B.1 aminoacylation ribozyme variant]", "no (0)"],
  ["AUUACCCUGUUCAUAGAGUGA [Fam2.1 aminoacylation ribozyme variant]", "yes (1)"],
  ["AUUCACGUAGGUCACCGGGUG [Fam2.2 aminoacylation ribozyme variant]", "yes (1)"],
  ["AUUACCCUGAUCAUCGAGGGA [Fam2.1 aminoacylation ribozyme variant]", "no (0)"],
  ["CCACACUCCAAGCAAUCGGUA [Fam1B.1 aminoacylation ribozyme variant]", "no (0)"],
  ["AGGUUUGCUAAUAGUCGUAAG [Fam3.1 aminoacylation ribozyme variant]", "no (0)"],
  ["AUUCACCUAGGGCAUCGGGGG [Fam2.2 aminoacylation ribozyme variant]", "no (0)"],
  ["UCACAUUUCAAGCAAUCGGUC [Fam1B.1 aminoacylation ribozyme variant]", "no (0)"],
  ["CUAUUUAAAACAAUCGGUCUG [Fam1A.1 aminoacylation ribozyme variant]", "no (0)"],
  ["CCACACUUCAAGAAAUCUGUC [Fam1B.1 aminoacylation ribozyme variant]", "no (0)"],
  ["AAGUUUGCUAAUACCCGCAAG [Fam3.1 aminoacylation ribozyme variant]", "no (0)"],
  ["AUUACACUGGUCAUUGAGUGA [Fam2.1 aminoacylation ribozyme variant]", "yes (1)"],
  ["CCACACUUCAAUCAAUCGUUC [Fam1B.1 aminoacylation ribozyme variant]", "no (0)"],
  ["AUUCCCCGGGUCAUCGAGUGA [Fam2.1 aminoacylation ribozyme variant]", "yes (1)"],
  ["AAAUUUGCUAAUAGUAGCAAG [Fam3.1 aminoacylation ribozyme variant]", "no (0)"],
  ["AUUCACCUAGGUCAUCUAGUG [Fam2.2 aminoacylation ribozyme variant]", "yes (1)"]
]}

---

Test system: biotinyl-Ile-oxazolone
assay summary: self-aminoacylation, catalytic enhancement (BIO) (fold over background); higher = more active; k-Seq, kA / k0A0; sequences stand for … in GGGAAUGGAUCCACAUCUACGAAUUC…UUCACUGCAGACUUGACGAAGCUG
Variants at the floor of the assay were thinned out.
Decide by self-aminoacylation: equal to or exceeding 1 means t, less means f.

{"columns": ["residue sequence", "class"],
 "data": [
  ["CUACUUCAAACAAUUGGUGUG [Fam1A.1 aminoacylation ribozyme variant]", "t"],
  ["ACACACUUCAAGCAAUCGGUG [Fam1B.1 aminoacylation ribozyme variant]", "t"],
  ["AAGUUUGCUAAGAGUCGAAAG [Fam3.1 aminoacylation ribozyme variant]", "f"],
  ["AUUCACCUAGCACAUCGGGUG [Fam2.2 aminoacylation ribozyme variant]", "t"],
  ["AUUACGCUUGUCAUCGAGUGA [Fam2.1 aminoacylation ribozyme variant]", "t"],
  ["AUUACCCUGGUGAACGAGUGA [Fam2.1 aminoacylation ribozyme variant]", "t"],
  ["CCACACUGCAAGGAAUCGGUC [Fam1B.1 aminoacylation ribozyme variant]", "t"],
  ["CCGCACUUCAAUCAAUCGGUC [Fam1B.1 aminoacylation ribozyme variant]", "t"],
  ["AAGUUUGCCUAUAGUCGCAAG [Fam3.1 aminoacylation ribozyme variant]", "f"],
  ["AAGUUUGUUAAUAGUCGUAAG [Fam3.1 aminoacylation ribozyme variant]", "f"],
  ["AUUACCCAGGUCAUGGAGUGA [Fam2.1 aminoacylation ribozyme variant]", "t"],
  ["CCACACUUCAACCAAUCGGUC [Fam1B.1 aminoacylation ribozyme variant]", "t"],
  ["AUUACCCCAGUCAUCGAGUGA [Fam2.1 aminoacylation ribozyme variant]", "t"],
  ["CUUCAUCUAGGUCAUCGGGUG [Fam2.2 aminoacylation ribozyme variant]", "t"],
  ["AUUCAUUUAGGUCAUCGGGUG [Fam2.2 aminoacylation ribozyme variant]", "t"],
  ["AUUCACCUAGGUCCUCGGGGG [Fam2.2 aminoacylation ribozyme variant]", "t"],
  ["AAGUUUCCUAGUAGUCGCAAG [Fam3.1 aminoacylation ribozyme variant]", "t"],
  ["AUUAUCUUGGUCAUCGAGUGA [Fam2.1 aminoacylation ribozyme variant]", "t"],
  ["AAGUUUGCUAACCGUCGCAAG [Fam3.1 aminoacylation ribozyme variant]", "f"],
  ["AAGUUGGCUAAUAGUUGCAAG [Fam3.1 aminoacylation ribozyme variant]", "t"],
  ["AAUACCCUGGUCAUAGAGUGA [Fam2.1 aminoacylation ribozyme variant]", "t"],
  ["UAGUUUGCUAAUAGUCGCAGG [Fam3.1 aminoacylation ribozyme variant]", "t"],
  ["AUUACCCUGGUCAUGGAGUGC [Fam2.1 aminoacylation ribozyme variant]", "t"],
  ["AUUCACCUAGGUCCUCGGGUG [Fam2.2 aminoacylation ribozyme variant]", "t"],
  ["AUUACCCUGGUCAUCGGGAGA [Fam2.1 aminoacylation ribozyme variant]", "t"],
  ["AUUACCCUGGUCAUCGACUGC [Fam2.1 aminoacylation ribozyme variant]", "f"],
  ["CUUCUUCAAACAAUCUGUCUG [Fam1A.1 aminoacylation ribozyme variant]", "f"],
  ["AUUCACCUACGUCAUUGGGUG [Fam2.2 aminoacylation ribozyme variant]", "t"],
  ["CCACACUUCAAUCAAUCGUUC [Fam1B.1 aminoacylation ribozyme variant]", "f"],
  ["AUUUACCUAGGUCAUUGGGUG [Fam2.2 aminoacylation ribozyme variant]", "t"],
  ["AUUUCCCGGGUCAUCGAGUGA [Fam2.1 aminoacylation ribozyme variant]", "t"],
  ["AUUACCCUGGCCAUCGAGUGU [Fam2.1 aminoacylation ribozyme variant]", "t"]
]}

---

Test system: biotinyl-Leu-oxazolone
assay summary: self-aminoacylation, catalytic enhancement (BLO) (fold over background); higher = more active; k-Seq, kA / k0A0; sequences stand for … in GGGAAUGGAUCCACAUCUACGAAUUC…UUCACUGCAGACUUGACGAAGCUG
Fewer inactive variants are shown than the library holds.
Entries are grouped by self-aminoacylation into these classes: lo = under 1, mid = from 1 up to 3, hi = 3 and over

{"columns": ["residue sequence", "class"],
 "data": [
  ["AUUCACCUAGGUAAUCCGGUG [Fam2.2 aminoacylation ribozyme variant]", "hi"],
  ["AUUACCCUGGUAAUAGAGUGA [Fam2.1 aminoacylation ribozyme variant]", "hi"],
  ["GUACUUCAAACAAUCGGUCUG [Fam1A.1 aminoacylation ribozyme variant]", "mid"],
  ["AAGUUCGCUAAUAGUCACAAG [Fam3.1 aminoacylation ribozyme variant]", "mid"],
  ["AACUUUACUAAUAGUCGCAAG [Fam3.1 aminoacylation ribozyme variant]", "mid"],
  ["CUACUUCAAAUAAUCAGUCUG [Fam1A.1 aminoacylation ribozyme variant]", "lo"],
  ["AUUCACCUACCUCAUCGGGUG [Fam2.2 aminoacylation ribozyme variant]", "hi"],
  ["AUUGACCCAGGUCAUCGGGUG [Fam2.2 aminoacylation ribozyme variant]", "hi"],
  ["CUGCUUCAUACAAUCGGUCUG [Fam1A.1 aminoacylation ribozyme variant]", "lo"],
  ["CUACUUCAAGGAAUCGGUCUG [Fam1A.1 aminoacylation ribozyme variant]", "mid"],
  ["CCACAGUUCAAGCAAUCAGUC [Fam1B.1 aminoacylation ribozyme variant]", "lo"],
  ["AUUCACCUAUGUCAUCGGGUA [Fam2.2 aminoacylation ribozyme variant]", "mid"],
  ["CUACUCCAUACAAUCGGUCUG [Fam1A.1 aminoacylation ribozyme variant]", "lo"],
  ["AUGUUUGAUAAUAGUCGCAAG [Fam3.1 aminoacylation ribozyme variant]", "mid"],
  ["CCACACUUCAAGUAAUGGGUC [Fam1B.1 aminoacylation ribozyme variant]", "lo"],
  ["AUUAUACUGGUCAUCGAGUGA [Fam2.1 aminoacylation ribozyme variant]", "hi"],
  ["GCACACUACAAGCAAUCGGUC [Fam1B.1 aminoacylation ribozyme variant]", "mid"]
]}

---

Tested on: biotinyl-Ile-oxazolone
assay summary: self-aminoacylation, catalytic enhancement (BIO) (fold over background); higher = more active; k-Seq, kA / k0A0; sequences stand for … in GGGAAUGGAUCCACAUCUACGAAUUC…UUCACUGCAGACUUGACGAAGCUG
This sample holds only a part of the variants without activity.
Below is a list of entries, each paired with its recorded self-aminoacylation value.
metric: self-aminoacylation

{"columns": ["residue sequence", "metric", "recorded result"],
 "data": [
  ["CUACCUCAAACAAACGGUCUG [Fam1A.1 aminoacylation ribozyme variant]", "self-aminoacylation", 0.919],
  ["CUUACCCUGGUCAUUGAGUGA [Fam2.1 aminoacylation ribozyme variant]", "self-aminoacylation", 3.9],
  ["CUACUUCAAACAAACGAUCUG [Fam1A.1 aminoacylation ribozyme variant]", "self-aminoacylation", 0.693],
  ["AUAAACCUAGGUCAUCGGGUG [Fam2.2 aminoacylation ribozyme variant]", "self-aminoacylation", 2.57],
  ["AUUACCGUGGUCUUCGAGUGA [Fam2.1 aminoacylation ribozyme variant]", "self-aminoacylation", 2.96],
  ["AUUCAGCUAGGUCAUCCGGUG [Fam2.2 aminoacylation ribozyme variant]", "self-aminoacylation", 5.29],
  ["AUUACCCGGGUCAUCGAGUGG [Fam2.1 aminoacylation ribozyme variant]", "self-aminoacylation", 1.25],
  ["AUUACCCUGGUCAUAGAGAGA [Fam2.1 aminoacylation ribozyme variant]", "self-aminoacylation", 0.947],
  ["CCACACUUCGAGCAAUAGGUC [Fam1B.1 aminoacylation ribozyme variant]", "self-aminoacylation", 0.703]
]}
